Source: patent US20260193326A1

# assay_target: AAV9 (adeno-associated virus serotype 9)
# assay_explanation: SPR, AAV on CM5 chip
property_measured: kon (M⁻¹ s⁻¹)
Express the result in M⁻¹ s⁻¹ but write the number alone.

A4-C2 (VHH) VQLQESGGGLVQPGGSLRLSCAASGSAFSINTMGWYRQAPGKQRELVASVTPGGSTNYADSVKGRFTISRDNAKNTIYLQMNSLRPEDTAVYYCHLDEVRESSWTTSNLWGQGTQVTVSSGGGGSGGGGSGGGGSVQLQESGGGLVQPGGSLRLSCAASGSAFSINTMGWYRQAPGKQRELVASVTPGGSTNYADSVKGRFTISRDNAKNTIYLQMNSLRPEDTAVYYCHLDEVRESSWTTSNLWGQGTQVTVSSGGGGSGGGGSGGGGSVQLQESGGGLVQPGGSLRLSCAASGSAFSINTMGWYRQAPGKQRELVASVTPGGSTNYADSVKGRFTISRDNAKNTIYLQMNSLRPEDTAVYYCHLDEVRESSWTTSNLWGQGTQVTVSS | 257000

So what does the record say about kon for A4-C3 (bispecific antibody) VQLQESGGGLVQPGGSLRLSCAASGSIFSINLMGWYRQAPGKQRELVATITRGGNTNYAGSVKGRFTISRDNAKNTVYLQMNSLRPEDTAVYYCHVDEVRQSSWTTSNLWGQGTQVTVSSGGGGSGGGGSGGGGSVQLQESGGGLVQPGGSLRLSCAASGSIFSINLMGWYRQAPGKQRELVATITRGGNTNYAGSVKGRFTISRDNAKNTVYLQMNSLRPEDTAVYYCHVDEVRQSSWTTSNLWGQGTQVTVSSGGGGSGGGGSGGGGSVQLQESGGGLVQPGGSLRLSCAASGSNFRINTMGWYRQAPGKQRELVATVTRGGSTNYADSVKGRFTISRDNPKDTVYLQMNSLRPEDTAVYYCHVDEVRESSWTTSNLWGQGTQVTVSS ?
183000
